# PROTOCOL: Acute toxicity in po dosed KM mouse measured for 14 days
# Type: organism-based
# TEST_CONDITIONS: in vivo
MEASUREMENT_LABEL: MTD at 336 h
Mention the unit after the number when you answer.

Dear colleague, I am looking for the recorded MTD at 336 h of the following compound: "COc1cc2[se]n(CCC3CCN(Cc4ccccc4)CC3)c(=O)c2cc1OC"
2000 mg/kg

====

# MEASURED_ON: Acetylcholinesterase (Electrophorus electricus, UniProt O42275)
# Sequence (O42275 whole entry): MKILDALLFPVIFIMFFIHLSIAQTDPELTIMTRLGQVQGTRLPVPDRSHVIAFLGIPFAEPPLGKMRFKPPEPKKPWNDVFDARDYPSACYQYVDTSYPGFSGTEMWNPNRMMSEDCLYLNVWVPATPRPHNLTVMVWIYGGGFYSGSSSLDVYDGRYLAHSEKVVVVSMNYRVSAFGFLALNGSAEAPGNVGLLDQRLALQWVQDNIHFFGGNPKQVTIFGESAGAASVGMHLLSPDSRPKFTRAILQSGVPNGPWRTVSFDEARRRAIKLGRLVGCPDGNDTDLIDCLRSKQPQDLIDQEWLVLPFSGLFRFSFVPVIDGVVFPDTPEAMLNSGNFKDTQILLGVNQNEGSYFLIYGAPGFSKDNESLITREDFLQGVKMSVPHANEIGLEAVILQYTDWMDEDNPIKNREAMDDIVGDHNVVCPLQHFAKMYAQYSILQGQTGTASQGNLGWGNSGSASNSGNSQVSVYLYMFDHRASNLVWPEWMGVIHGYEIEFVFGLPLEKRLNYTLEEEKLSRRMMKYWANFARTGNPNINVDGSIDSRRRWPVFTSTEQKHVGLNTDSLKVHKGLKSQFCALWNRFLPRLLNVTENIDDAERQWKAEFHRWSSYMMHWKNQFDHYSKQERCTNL
Catalogue of IC50 values
Could you give me the number in µM? Just the number is fine.

O=c1c2ccc(F)cc2[se]n1CCC1CCN(Cc2ccccc2)CC1
0.224

Lab note: need IC50 with Acetylcholinesterase (Electrophorus electricus, UniProt O42275) for entry "O=c1c2ccc(Cl)cc2[se]n1CCC1CCN(Cc2ccccc2)CC1" , please look it up.
0.206

Lab note: need IC50 with Acetylcholinesterase (Electrophorus electricus, UniProt O42275) for entry "O=c1c2ccccc2[se]n1CC1CCN(Cc2ccccc2)CC1" , please look it up.
19.8

Lab note: need IC50 with Acetylcholinesterase (Electrophorus electricus, UniProt O42275) for entry "COc1cc2[se]n(C3CCN(Cc4ccccc4)CC3)c(=O)c2cc1OC" , please look it up.
11.8

Lab note: need IC50 with Acetylcholinesterase (Electrophorus electricus, UniProt O42275) for entry "O=c1c2ccc(F)cc2[se]n1C1CCN(Cc2ccccc2)CC1" , please look it up.
19.7

Lab note: need IC50 with Acetylcholinesterase (Electrophorus electricus, UniProt O42275) for entry "COc1cc2[se]n(CCCCC3CCN(Cc4ccccc4)CC3)c(=O)c2cc1OC" , please look it up.
0.038
